The reported measurements were obtained from patent US12344603B2.

Target system: IRE1α (Homo sapiens (Human), UniProt O75460, D688N)
Sequence (O75460 547-977 D688N): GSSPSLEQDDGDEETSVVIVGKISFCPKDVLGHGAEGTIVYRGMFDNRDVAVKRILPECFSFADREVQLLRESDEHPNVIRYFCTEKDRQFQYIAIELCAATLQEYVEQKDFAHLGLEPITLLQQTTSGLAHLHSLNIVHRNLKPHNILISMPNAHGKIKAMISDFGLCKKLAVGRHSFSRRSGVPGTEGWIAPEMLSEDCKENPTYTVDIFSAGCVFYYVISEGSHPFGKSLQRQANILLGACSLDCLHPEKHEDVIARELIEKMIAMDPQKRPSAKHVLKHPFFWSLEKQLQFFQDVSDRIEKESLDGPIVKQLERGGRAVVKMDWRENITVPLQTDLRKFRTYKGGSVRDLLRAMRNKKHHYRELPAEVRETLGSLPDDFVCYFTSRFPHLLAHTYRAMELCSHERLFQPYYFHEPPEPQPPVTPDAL
Experiment summary: IRE1α TR-FRET competition binding assay (IRE1α HTRF)
Experimental setup: TR-FRET competition binding to kinase domain of IRE1α; hydrochloride
pIC50: −log10 of the molar value. Where a name gives a salt, the structure may show the parent alone.
Endpoint name: pIC50

CC(C)n1c(=O)c(-c2ccc(NS(=O)(=O)CCC(F)(F)F)c(F)c2)cc2cnc(NC3CCC(N(C)C)C(F)C3)nc21 (racemic) [Compound 154, hydrochloride] | 9.89

* * *

Target system: IRE1α (Homo sapiens (Human), UniProt O75460, D688N)
Experiment summary: IRE1α TR-FRET competition binding assay (IRE1α HTRF)
Experimental setup: TR-FRET competition binding to kinase domain of IRE1α
Structures can show the parent of a compound that is named as a salt.
# Lookup of reported IC50 keyed by entry
Endpoint name: IC50 (nM)

CC(C)n1c(=O)c(-c2ccc(NS(=O)(=O)CCC(F)(F)F)c(F)c2)cc2cnc(N[C@H]3CC[C@H](N(C)CC4COC4)CC3)nc21 [Compound 204] | 1
CC(C)n1c(=O)c(-c2ccc(NS(=O)(=O)CCC3(C)CC3)c(F)c2)cc2cnc(N[C@H]3CC[C@H](N(C)C)CC3)nc21 [Example 230] | 0.2
O=c1c(-c2ccc(NS(=O)(=O)Cc3ccccc3F)c(F)c2)cc2cnc(N[C@@H]3CNC[C@@H](F)C3)nc2n1CCO [Compound 208] | 1.2
CC(C)n1c(=O)c(-c2cc(F)c(NS(=O)(=O)CCC(F)(F)F)c(F)c2)nc2cnc(N[C@@H]3CNC[C@@H](F)C3)nc21 [Compound 46] | 0.47
CC(C)n1c(=O)c(-c2ccc(NS(=O)(=O)CCC(F)(F)F)cn2)cc2cnc(N[C@H]3CC[C@H](N(C)C)[C@H](F)C3)nc21 [Example 223] | 0.5
CC(C)n1c(=O)c(-c2cc(F)c(NS(=O)(=O)Cc3ccccc3F)c(F)c2F)cc2cnc(N[C@@H]3CNC[C@@H](O)C3)nc21 (racemic) [Compound 87] | 0.63
CC(C)n1c(=O)c(-c2ccc(NS(=O)(=O)c3ccccc3C#N)nc2)cc2cnc(N[C@H]3CC[C@H](N(C)CCF)CC3)nc21 [Compound 148] | 0.23
CCC(F)(F)CS(=O)(=O)Nc1ccc(-c2nc3cnc(N[C@@H]4CNC[C@@H](F)C4)nc3n(C(C)C)c2=O)cc1F [Compound 83] | 0.4
CC(C)n1c(=O)c(-c2ccc(NS(=O)(=O)CCC(F)(F)F)c(F)c2)nc2cnc(N[C@H]3CC[C@H](N(C)CCF)CC3)nc21 [Compound 177] | 0.24
CC(C)n1c(=O)c(-c2ccc(NS(=O)(=O)Cc3ccc(F)cc3)c(F)c2)cc2cnc(N[C@@H]3CNC[C@@H](F)C3)nc21 [Compound 112, hydrochloride] | 0.13
COCCN(C)[C@H]1CC[C@H](Nc2ncc3cc(-c4ccc(NS(=O)(=O)Cc5ccccc5)c(F)c4)c(=O)n(C(C)C)c3n2)CC1 [Compound 124, hydrochloride] | 0.12
CC(C)n1c(=O)c(-c2ccc(NS(=O)(=O)N3CCCC3)c(F)c2)nc2cnc(N[C@@H]3CNC[C@@H](F)C3)nc21 [Compound 163] | 0.97
